Values from the RNAGym collection of RNA variant scans (doi:10.1021/acssynbio.7b00057)

B1: Pistol ribozyme (parent)
chain: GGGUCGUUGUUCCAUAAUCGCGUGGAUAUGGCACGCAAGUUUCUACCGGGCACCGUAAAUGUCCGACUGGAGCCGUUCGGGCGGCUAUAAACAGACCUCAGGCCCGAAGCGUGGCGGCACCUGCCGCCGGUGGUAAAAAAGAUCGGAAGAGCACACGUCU

variants of: B1; test: aptazyme ON/OFF ratio, guanine; higher = stronger switching; co-transcriptional cleavage with and without guanine
I'd be grateful if you could share measured aptazyme ON/OFF ratio for these entries.
Numbers only.

variant="G9A U10G C13G" reported_value=1.15
variant="U7G U10G U11A C12A C13U" reported_value=1.08
variant="U8G U10G U11C C13G" reported_value=1.02
variant="U7G U8A G9U U10G U11C C12A C13A" reported_value=1.05
variant="U7C U8C G9U U10C U11A C12U C13G" reported_value=1.14

Need aptazyme ON/OFF ratio for each of these variants.
1. U7A U8G U11C C12U C13A
2. U8C G9A U10A C13U
3. U7G G9C U10G U11G C12A

Response:
1.43
1.42
1.05
